- Test system: MCF7 breast
- Procedure text: NCI tumour cell line growth inhibition, 48 h; in the data active means GI50 below about 0.43 µM; inactive means the rest
Possible outcomes: Y (active), N (inactive)

INSERT INTO assay_data (mol_smiles, label_value) VALUES
  ('CN(C)c1ccc(-c2cc(-c3ccc(Nc4nc(Nc5ccccc5)nc(Nc5ccc(Cl)cc5)n4)cc3)nc(N)n2)cc1', 'N'),
  ('C[C@]12CC[C@@H]3c4ccc(O)cc4CC[C@H]3[C@@H]1CC[C@@H]2NS(=O)(=O)c1cccc(C(F)(F)F)c1', 'N'),
  ('CN(c1ccc(NC(=O)Nc2ccc(OC(F)(F)F)cc2)cc1)c1ccnc(Nc2cccc(S(N)(=O)=O)c2)n1', 'N'),
  ('COc1cc2c3c(n(CCCNCC(OC)OC)c(=O)c2cc1OC)-c1cc2c(cc1C3=O)OCO2', 'Y'),
  ('COc1ccc(C(=O)/C=C/c2c(C(F)(F)F)nc3sccn23)cc1OC', 'N');

---

Collected TGI values appear next to each entry.
- Tested on: M14 melanoma
- Procedure text: NCI tumour cell line growth inhibition, 48 h
Parameter measured: TGI

INSERT INTO assay_data (molecule, value_measured) VALUES
  ('COc1cc2nc(-c3cccs3)nc(N3C(c4ccc(O)cc4)=NNC(=O)c4ccccc43)c2cc1OC', '79.4 µM'),
  ('Cc1nn(-c2ccccc2)c2c1CC(=O)Nc1ccccc1-2', '> 100 µM'),
  ('Cc1nc(-n2[nH]c(C)c(CCO)c2=O)[nH]c(=O)c1CCO', '> 100 µM'),
  ('O=C1OC(CC(=O)c2ccc(Cl)cc2Cl)C(Cl)=C1Cl (stereo unspecified)', '> 91.9 µM'),
  ('C=CN1C(=O)OC[C@@H]1c1ccccc1', '> 100 µM'),
  ('CC1=C(O)C(=O)C[C@]2(C)[C@H]3CC=C4[C@@H]5CC(C)(C)CC[C@@H]5C(=O)[C@H](O)[C@@]4(C)[C@]3(C)CC[C@@H]12', '> 50 µM'),
  ('CSc1nc(-c2ccc(C)cc2)c(C#N)c(=O)[nH]1', '> 100 µM'),
  ('Nc1ncnc2c1ncn2CC(O)C(=O)O (stereo unspecified)', '> 100 µM'),
  ('COc1c(OC)c(N)c2cc(C)c(=O)c(C)cc2c1N', '> 100 µM'),
  ('OCC(O)C(OC1OC(CO)C(O)C(O)C1O)c1nn(-c2ccccc2)c2nc3cc(Cl)c(Cl)cc3cc12 (stereo unspecified)', '> 100 µM'),
  ('COc1ccc2oc(=O)cc(C)c2c1', '> 100 µM'),
  ('CCCCn1cnnc1NS(=O)(=O)c1cc(C)c(Cl)cc1SCC(=O)O', '> 10 µM'),
  ('CC(=O)O[C@@H]1[C@H]2[C@@H](OC(=O)c3ccccc3)[C@@H](C)C[C@]2(O)[C@H](OC(C)=O)[C@@]2(C)[C@@H]3CC(C)(C)C(=O)[C@]3(OC(C)=O)C[C@@]12C', '> 25 µM'),
  ('O=C(Cn1cc(F)c(=O)[nH]c1=O)C12CC3CC(CC(C3)C1)C2', '> 100 µM'),
  ('C#CCOCn1ccc(=O)[nH]c1=O', '> 100 µM'),
  ('NC1=NNC2(C(=O)N1)c1ccccc1-c1ccccc12', '> 10 µM'),
  ('COc1ccc(N=Nc2ccc3oc(=O)c(C(=O)Nc4ccccc4)cc3c2)cc1', '> 10 µM'),
  ('NC(=O)NO', '1950 µM'),
  ('Cc1cc(C)c2c(c1)Nc1ccccc1P2c1ccccc1 (stereo unspecified)', '> 100 µM'),
  ('CCCCNc1c(CN)cnc2cc(Cl)ccc12', '36.6 µM'),
  ('O=C(/C=C/c1ccc(Cl)c(Cl)c1)c1ccc(F)cc1', '30.5 µM'),
  ('CCCCCCC#Cc1ccccc1C#CCO', '74.9 µM'),
  ('C=C(C)C(=O)OC1CC2=CC(CC3(C)OC3C3OC(=O)C(=C)C13)OC2=O (stereo unspecified)', '15.4 µM'),
  ('C=CCN(N=O)C(=O)N(CCCC(NC(C)=O)C(=O)NCc1ccccc1)Cc1ccccc1 (stereo unspecified)', '> 100 µM'),
  ('CCOP(=O)(OCC)/C(C#N)=C/c1ccc(-c2ccc(F)cc2F)o1', '31.7 µM'),
  ('Nc1ccn(CCO)c(=O)n1', '> 100 µM'),
  ('CCc1ccccc1N1CCN(C(=O)c2cc(OC)c(OC)c(OC)c2)CC1', '2.6 µM'),
  ('CC(C)[C@@]12C[C@@H](OC(=O)COC(=O)/C=C/c3ccccc3)[C@@](C)(O1)[C@@H]1CC[C@@H](C)[C@H]1[C@@H]2OC(=O)/C=C/c1ccccc1', '> 100 µM'),
  ('C(=C\c1nccs1)/c1cccc(/C=C/c2nccs2)n1', '> 50 µM'),
  ('O=C1C=C[C@@]23C[C@@H](Nc4c(O)c5c6c(c42)=NCCC=6C=N5)SC3=C1', '5.05 µM'),
  ('NC(=O)c1cc([N+](=O)[O-])c(Cl)c([N+](=O)[O-])c1', '4.72 µM'),
  ('COc1ccc(-c2cnnn2-c2cc(OC)c3c(c2)OCO3)cc1', '> 100 µM'),
  ('COC(=O)c1cc(-c2cc(OC)c(OC)c(OC)c2)[nH]c1N/N=C/c1c(Cl)cccc1Cl', '40.1 µM'),
  ('O=C(/C=C/c1cccs1)c1ccc(Nc2nc(Nc3ccc(F)cc3)nc(Nc3ccc(F)cc3)n2)cc1', '> 100 µM'),
  ('CC(CN1CCN(C)CC1)CN1c2ccccc2Sc2ccc(C(F)(F)F)cc21 (stereo unspecified)', '3.25 µM'),
  ('Cn1c(=O)c(Oc2ccc(F)cc2F)cc2cnc(NC(CO)CO)nc21', '> 25 µM');

The reported measurements were obtained from PubChem BioAssay (NCI).
